Origin of the recorded values: patent US11225465B2

MIC listing for selected compounds.
Tested on: S. typhimurium TA100
Experiment: Microdilution assay, MIC
Assay type: cell-based
Details: Salmonella enterica, 20 h, read-out: MIC S. typhimurium TA100
Experimental: The tests were performed using the micro dilution method. The determination of MIC values was performed according to the ninth edition of the Approved Standard M07-A9 (CLSI. Methods for Dilution Antimicrobial Susceptibility Tests for Bacteria That Grow Aerobically; Approved Standard—Ninth Edition. CLSI document M07-A9. Wayne, Pa.: Clinical and Laboratory Standards Institute; 2012.) […] Both microdilution trays and agar plates were incubated at 37° C. for 20 h and subsequently analyzed visually.
Write the value in µg/mL as a bare number.

Smiles text	Experimental system	MIC (µg/mL)
COc1c(NC(=O)c2ccc(NC(=O)c3ccc(NC(=O)[C@H](Cc4ccccn4)NC(=O)c4ccc(NC(=O)/C(C)=C/c5ccc(O)cc5)cc4)cc3)c(OC)c2O)ccc(C(=O)O)c1O	S. typhimurium TA100	125

Task: Please provide the recorded MIC for `COc1c(NC(=O)c2ccc(NC(=O)c3ccc(NC(=O)[C@@H](CN(C)C)NC(=O)c4ccc(NC(=O)/C(C)=C/c5ccc(O)cc5)cc4)cc3)c(OC)c2O)ccc(C(=O)O)c1O` , tested on S. typhimurium TA100.
Result: 250

Task: Please provide the recorded MIC for `COc1c(NC(=O)c2ccc(NC(=O)c3ccc(NC(=O)[C@H](Cc4cnn[nH]4)NC(=O)c4ccc(NC(=O)/C(C)=C/c5ccc(O)cc5)cc4)c(O)c3)c(OC)c2O)ccc(C(=O)O)c1O` , tested on S. typhimurium TA100.
Result: 63
